testTarget: KRas G12D (Homo sapiens, UniProt P01116, G12D)
assayRemarks: KRas G12D Surface Plasmon Resonance (SPR) Binding Assay
runParameters: Biacore T200, biotinylated Avidin-tagged KRAS protein on SA chip, 20 C, 1:1 binding model
Sequence (P01116 1-188 isoform P01116-2 G12D): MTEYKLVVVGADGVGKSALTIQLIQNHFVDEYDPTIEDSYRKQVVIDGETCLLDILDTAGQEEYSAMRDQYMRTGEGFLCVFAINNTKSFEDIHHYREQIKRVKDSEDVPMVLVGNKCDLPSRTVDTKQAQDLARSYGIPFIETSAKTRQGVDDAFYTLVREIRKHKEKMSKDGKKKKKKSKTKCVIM
measuredParameter: Kd (µM)
Respond with the bare value in µM.

# annotated cases, reported Kd shown
[
  {
    "compound": "CN1CCC[C@H]1COc1nc2c(c(N3C[C@H]4CC[C@@H](C3)N4)n1)CCN(c1cccc3ccccc13)C2",
    "Kd [µM]": 2.1
  },
  {
    "compound": "CN1CCC[C@H]1COc1nc2c(c(N3C[C@H]4CC[C@@H](C3)N4)n1)CCN(c1cc(O)c(Cl)c3ccccc13)C2",
    "Kd [µM]": 0.0377
  },
  {
    "compound": "CN1CCC[C@H]1COc1nc2c(c(N3C[C@H]4CC[C@@H](C3)N4)n1)CCN(c1cccc3cccc(CCCCO)c13)C2",
    "Kd [µM]": 8.71
  },
  {
    "compound": "CN1CCC[C@H]1COc1nc2c(c(N3C[C@H]4C[C@@H](CC#N)[C@@H](C3)N4)n1)CCN(c1cccc3cccc(Cl)c13)C2",
    "Kd [µM]": 0.957
  },
  {
    "compound": "CN1CCC[C@H]1COc1nc2c(c(N3C[C@H]4CC[C@@H](C3)N4)n1)CCN(c1cccc3ccc(F)c(Cl)c13)C2",
    "Kd [µM]": 0.0182
  }
]

Task: Tell me Kd reported for CN1CCC[C@H]1COc1nc2c(c(N3C[C@H]4CC[C@@H](C3)N4)n1)CCN(c1ccc(Br)c3cccc(Cl)c13)C2
Result: 41.6

Task: State its Kd: CN1CCC[C@H]1COc1nc2c(c(N3C[C@H]4CC[C@@H](C3)N4)n1)CCN(c1cc(C(F)F)cc3ccccc13)C2
Result: 89.9

Task: Look up Kd of CN1CCC[C@H]1COc1nc2c(c(N3C[C@H]4CC[C@@H](C3)N4)n1)CCN(c1cncc3ccccc13)C2 and report it.
Result: 98.5

Task: Determine its reported Kd: Cc1c(O)cc(N2CCc3c(nc(OC[C@@H]4CCCN4C)nc3N3C[C@H]4CC[C@@H](C3)N4)C2)c2ccccc12
Result: 38.4

Task: State, in one line, measured Kd of Oc1cc(N2CCc3c(nc(OC[C@@H]4CCCN4)nc3N3C[C@H]4CC[C@@H](C3)N4)C2)c2ccccc2c1Cl
Result: 0.0913

Task: Find the measured Kd of CN1CCC[C@H]1COc1nc2c(c(N3C[C@H]4CC[C@@H](C3)N4)n1)CCN(C1CC(O)c3ccccc31)C2 (stereo partly drawn) and report it.
Result: 570

Task: Look up and state reported Kd for CN1CCC[C@H]1COc1nc2c(c(N3C[C@H]4CC[C@@H](C3)N4)n1)CCN(c1cncc3cccc(Cl)c13)C2
Result: 0.438

----------
Overview of recorded IC50 for various molecules
testTarget: KRas G12D (Homo sapiens, UniProt P01116, G12D)
assayRemarks: KRas G12D Binding Assay (TR-FRET displacement of labeled tracer)
runParameters: TR-FRET displacement of Cy5 labelled tracer, biotinylated GDP-loaded KRAS G12D (aa 1:169), 60 minute incubation at 22° C.
Sequence (P01116 1-169 isoform P01116-2 G12D): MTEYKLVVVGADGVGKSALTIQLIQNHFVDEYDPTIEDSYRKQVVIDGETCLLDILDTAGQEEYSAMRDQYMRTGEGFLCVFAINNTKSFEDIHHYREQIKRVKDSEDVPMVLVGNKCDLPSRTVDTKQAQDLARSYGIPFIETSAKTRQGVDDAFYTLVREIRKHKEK
Be sure to follow the number with its unit.

Worked cases, IC50 given:
[
  {
    "molecule": "F[C@H]1CN2CCCC2(COc2nc3c(c(N4CC5CCC(C4)N5)n2)CCN(c2cccc4cccc(Cl)c24)C3)C1 (mixture of isomers)",
    "testTarget": "KRas G12D (Homo sapiens, UniProt P01116, G12D)",
    "measuredParameter": "IC50",
    "measuredResult": "4.4 nM"
  },
  {
    "molecule": "CN1CCC[C@H]1COc1nc2c(c(N3C[C@H]4CC[C@@H](C3)N4)n1)CCN(c1nc(N)nc3ccccc13)C2",
    "testTarget": "KRas G12D (Homo sapiens, UniProt P01116, G12D)",
    "measuredParameter": "IC50",
    "measuredResult": "7500 nM"
  },
  {
    "molecule": "CN(C)C(=O)OC[C@H]1CCC2(COc3nc4c(c(N5CC6CCC(C5)N6)n3)CCN(c3cccc(Cl)c3C3CC3)C4)CCCN12 (some centres unmarked)",
    "testTarget": "KRas G12D (Homo sapiens, UniProt P01116, G12D)",
    "measuredParameter": "IC50",
    "measuredResult": "50.2 nM"
  },
  {
    "molecule": "CCc1cccc2cccc(N3CCc4c(nc(OC[C@]56CCCN5[C@@H](COC(=O)NCCOC)CC6)nc4N4C[C@H]5CC[C@@H](C4)N5)C3)c12",
    "testTarget": "KRas G12D (Homo sapiens, UniProt P01116, G12D)",
    "measuredParameter": "IC50",
    "measuredResult": "2 nM"
  }
]

Attention now shifts to the item below.
Task: Give the value of IC50 reported for the following: CN1CCC[C@H]1COc1nc2c(c(N3C[C@H]4CC[C@@H](C3)N4)n1)CCN(c1cccc3cccc(Cl)c13)C2
Result: 267 nM
